B1: ZNF193 (parent)
chain: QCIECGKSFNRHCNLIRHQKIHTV

variants of: B1; assay: protein stability index of a GFP-peptide fusion (GPS, HEK-293T) (PSI 1-6); higher = more stable; settings: c terminus: a fixed tail appended;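 further: lentivirally expressed fusions sorted by FACS into six bins by GFP to DsRed ratio, PSI derived from sequencing read proportions per bin multiplied by bin number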
assay.readout: protein stability index

> print(dat)
    variant.label  experimental.result
 1           T23Y                 3.31
 2            F9E                 2.93
 3           I16D                 2.96
 4            S8T                 3.96
 5           L15K                 2.94
 6           H22V                 2.32
 7           I16N                 2.89
 8           H22N                 2.78
 9           H18E                 2.33
10            G6F                 1.59
11            I3C                 3.63
12            K7I                 3.08
13           T23P                 3.23
14           Q19P                 1.99
15           I21V                 3.74
16            E4Y                 3.06
17           H18L                 1.71
18           L15W                 4.43
19           R11Q                 2.96
20            Q1G                 2.45
21           Q19D                 2.03
22            C2N                 2.45
23            K7E                 3.86
24            G6W                  1.5
25            F9I                 2.13
26            K7M                 3.34
27            C5L                 1.54
28           I21R                 3.81
29           N14M                  3.5
30            E4T                 3.42
31           H18I                    2
32           V24G                 3.56
33           N14T                 3.44
34           I16K                    4
35           T23H                  3.9
36            E4P                 1.39
37            F9C                 3.47
38           H22E                 2.63
39           H18A                 2.45
40           N10V                 3.75
41            I3F                 3.32
42           H12D                 3.36
43           H12C                 2.92
44            F9L                  1.9
45           I21L                 3.48
46           R17Y                 2.52
47           R17I                 2.31
48            Q1K                  3.6
49           H18T                 1.66
50            E4I                 3.54
51           L15D                 3.18
52           H12Q                    4
53           L15T                 2.29
54            I3K                 3.87
55           L15F                 3.32
56           I21T                 4.39
57           L15R                 3.01
58           H18P                 2.05
59            K7C                 2.51
60            G6H                 2.15
61            C5A                 2.36
62            S8H                 3.29
63           H18G                 2.91
64            E4M                  3.1
65           Q19K                 3.27
66           N14W                 2.29
67            S8V                 4.35
68           Q19G                  2.5
69           I16P                 2.56
70            F9R                 2.77
71           V24P                 4.21
72           C13F                 2.62
73           I16T                  3.3
74           C13E                 4.55
75            Q1T                 4.04
76           N14V                 2.83
77           K20A                 3.85
78           Q19T                 2.79
79           R17D                 3.78
80            G6V                 1.92
81           T23I                  2.6
82           L15C                  3.6
83           I16S                 3.41
84           N10R                 3.97
85           I21N                 3.52
86           V24I                  2.8
87           I16C                  3.9
88           K20V                 2.66
89           R17K                 3.74
90            C2W                 2.04
91           H22F                 1.63
